Origin of the recorded values: PubChem BioAssay

run.description: anti-His antibody binders, primary screen, artefact control for SMM control protein annotation, biochemical, small-molecule microarray, 635 nm fluorescence (AID 1128);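 also: score merges feature fluorescence with signal-to-noise for each printed compound spot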
condition: anti-His Alexa647 antibody binding, higher = more signal
assay.readout: composite z-score
When you answer, write just the number.

// composite z-score lookup, key: COC(=O)CC=C[C@@H](C)[C@@H](C=NO[C@@H]1O[C@H](COC(C)=O)[C@@H](OC(C)=O)[C@H](OC(C)=O)[C@H]1OC(C)=O)OC
0.662

// composite z-score lookup, key: O=C1C[C@@H](O)[C@@H](O)[C@@H]2[C@@H]3C(=O)N(c4cccc(Oc5ccccc5)c4)C(=O)[C@@H]3CC[C@H]12
-0.0123

// composite z-score lookup, key: COC(=O)[C@H]1O[C@@H](c2c(OC)c(OC)c(C)c(OC)c2OC)[C@H](C)[C@@H](O)[C@H]1C
0.377

// composite z-score lookup, key: CO[C@H]1COC(=O)CC=C[C@@H](C)[C@H](NS(=O)(=O)c2ccc(C)cc2)COC(=O)CCC[C@@H]1C
0.167

// composite z-score lookup, key: CCOC(=O)[C@H](CC(C)C)NC(=O)CCC1CC(OC(=O)NCc2cccc3ccccc23)CC2(CCCC(COC(=O)NCCOc3ccccc3)O2)O1 (stereo partly specified)
0.907

// composite z-score lookup, key: C=CC[C@@H]1C=C[C@H](ON=C[C@@H](C)[C@H](OCc2ccccc2)C(C)C)[C@@H](CO)O1
-0.304

// composite z-score lookup, key: C[C@H]1Cc2c(COc3ccccc3)nc3c(c2CO1)CN(CCOc1ccccc1)CC3
1.07

// composite z-score lookup, key: CO[C@H]1COC(=O)[C@@H](C)COC(=O)[C@H](C)NC(=O)CC=C[C@H]1C
-0.79

// composite z-score lookup, key: COc1ccc(C#C[C@@H]2C=C[C@H](OC(C)=O)[C@@H](COC(C)=O)O2)cc1
1.01

// composite z-score lookup, key: C[C@@H](c1ccccc1)N1C(=O)[C@H]2[C@H]3[C@H](O)[C@H](O)CC(=O)[C@H]3CC[C@H]2C1=O
0.335

// composite z-score lookup, key: CO[C@H]1COC(=O)CC=C[C@@H](C)[C@H](OC)COC(=O)CCC[C@@H]1C
0.165

// composite z-score lookup, key: CC(C)=CCCC(C)=CCON=C1C[C@@H](O)[C@@H](O)[C@@H]2[C@@H]3C(=O)N(C[C@@H]4CCCO4)C(=O)[C@@H]3CC[C@H]12
1.39

// composite z-score lookup, key: CCOC(=O)NN=C1C[C@@H](O)[C@@H](O)[C@@H]2[C@@H]3C(=O)N([C@@H](C)c4ccccc4)C(=O)[C@@H]3CC[C@H]12
0.236

// composite z-score lookup, key: CCOC(=O)CCN1C(=O)[C@H]2[C@H]3[C@H](O)[C@H](O)CC(=NNC(=O)OCc4ccccc4)[C@@H]3CC[C@H]2C1=O
0.553

// composite z-score lookup, key: C[n+]1ccc(-c2ccc(CO)cc2)cc1
0.658

// composite z-score lookup, key: COC(=O)[C@H]1[C@@H](O)[C@@]2(O)c3ccccc3O[C@@]2(c2ccccc2)[C@@H]1c1ccccc1
0.434
